Overview of reported concentration at 4 h across a group of molecules:
# Assay Notes: Plasma concentration in Wistar rat plasma at 50 mg/kg, ip at 4 hrs
# Assay type: ADME, organism-based
# Parameters: dose 50 mg/kg, route intraperitoneal
Metric: concentration at 4 h (µM)

• Cc1cccc(-c2ccc(CNC(=O)CCCc3ccc4cccnc4n3)cc2)c1 = 2
• O=C(CCCc1ccc2cccnc2n1)NCc1cc(-c2ccc(F)c(C(F)(F)F)c2)no1 = 19
• FC(F)(F)c1cc(-c2nnc(CCCCc3ccc4cccnc4n3)o2)ccc1Cl = 20

###

# Assay Notes: Terminal half life in Wistar rat plasma at 30 mg/kg, po
# Assay type: ADME, organism-based
# Parameters: dose 30 mg/kg, route oral
# Assay Context: read-out: beta t1/2 (converted)
Recorded measurements of half-life, one per entry
Metric: half-life (h)

- O=C(CCCc1ccc2cccnc2n1)NCc1cc(-c2ccc(F)c(C(F)(F)F)c2)no1: 0.9
- FC(F)(F)Oc1ccc(-c2nnc(CCCCc3ccc4cccnc4n3)o2)cc1Cl: 3.4

###

# Assay Notes: Plasma concentration in Wistar rat plasma at 50 mg/kg, ip at 2 hrs
# Type: ADME, organism-based
# Set-up: dose 50 mg/kg, route intraperitoneal
Property: concentration at 2 h; scope: individual compounds
Metric: concentration at 2 h (µM)

* O=C(CCCc1ccc2cccnc2n1)NCc1cc(-c2ccc(F)c(C(F)(F)F)c2)no1 | 22
* FC(F)(F)c1cc(-c2nnc(CCCCc3ccc4cccnc4n3)o2)ccc1Cl | 19
* Cc1cccc(-c2ccc(CNC(=O)CCCc3ccc4cccnc4n3)cc2)c1 | 1.8

###

# Assay Notes: Plasma clearance in Wistar rat at 3 mg/kg, iv
# Assay type: ADME, organism-based
# Design: dose 3 mg/kg, route intravenous
Metric: clearance (mL/min/kg)

* C[C@H](NC(=O)Cc1ccc(-c2ccc3cccnc3n2)cc1)c1ccc(-c2ccc(F)c(C(F)(F)F)c2)cc1 | 36

###

# Assay Notes: Terminal half life in Wistar rat at 5 mg/kg, iv
# Assay type: ADME, organism-based
# Design: dose 5 mg/kg, route intravenous
# Assay Context: in vivo, read-out: beta t1/2 (converted)
half-life reference
Metric: half-life

* FC(F)(F)c1cc(-c2nnc(CCCCc3ccc4cccnc4n3)o2)ccc1Cl | 18 min
* C[C@H](NC(=O)CCCc1ccc2cccnc2n1)c1ccc(-c2cccc(Cl)c2)cc1 | 48 min
* FC(F)(F)Oc1ccc(-c2nnc(CCCCc3ccc4cccnc4n3)o2)cc1Cl | 78 min
* Clc1cccc(-c2ccc(-c3nnc(CCCc4ccc5cccnc5n4)o3)cc2)c1 | 54 min
* O=C(CCCc1ccc2cccnc2n1)NCc1cc(-c2ccc(F)c(C(F)(F)F)c2)no1 | 66 min
* O=C(CCCc1ccc2cccnc2n1)NCc1ccc(-c2cccc(Cl)c2)cc1 | 72 min
* Cc1cccc(-c2ccc(CNC(=O)CCCc3ccc4cccnc4n3)cc2)c1 | 6 min

###

# Assay Notes: Tmax in Wistar rat at 30 mg/kg, po
# Type: ADME, organism-based
# Parameters: dose 30 mg/kg, route oral
# Assay Context: in vivo
Metric: Tmax (h)

• FC(F)(F)Oc1ccc(-c2nnc(CCCCc3ccc4cccnc4n3)o2)cc1Cl = 1.5
• O=C(CCCc1ccc2cccnc2n1)NCc1cc(-c2ccc(F)c(C(F)(F)F)c2)no1 = 0.5

###

# Test Target: B1 bradykinin receptor (Homo sapiens)
# Sequence (P46663 whole entry): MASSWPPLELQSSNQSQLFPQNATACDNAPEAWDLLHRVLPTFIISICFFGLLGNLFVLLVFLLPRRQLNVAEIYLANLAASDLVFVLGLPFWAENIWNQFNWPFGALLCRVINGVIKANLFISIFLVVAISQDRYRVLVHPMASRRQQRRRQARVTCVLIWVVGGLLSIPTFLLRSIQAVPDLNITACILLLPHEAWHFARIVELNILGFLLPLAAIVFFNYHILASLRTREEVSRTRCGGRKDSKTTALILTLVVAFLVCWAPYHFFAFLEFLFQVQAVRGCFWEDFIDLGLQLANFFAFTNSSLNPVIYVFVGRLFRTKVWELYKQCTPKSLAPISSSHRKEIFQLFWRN
# Assay Notes: Antagonist activity at human bradykinin B1 receptor expressed in […] cells assessed as inhibition of calcium flux by FLIPR assay
pIC50: −log10 of the molar value.
Metric: pIC50

• COC(=O)c1c(F)cccc1-c1ccc(CNC(=O)CCCc2ccc3cccnc3n2)c(F)c1 = 5.60

###

# Tested on: Liver microsomes
# Assay Notes: Intrinsic clearance in rat liver microsomes preincubated for 5 mins before addition of NADPH measured after 30 mins by LC/MS/MS analysis
# Assay type: ADME, Microsome
# Assay Context: 0.5 h
If the reported Intrinsic clearance equals or exceeds 0.1 nmol/min/mg, assign Fulfilled. If not, assign Not fulfilled.

• O=C(CCCc1ccc2cccnc2n1)NCc1nc(-c2cccc(Cl)c2)cs1 = Fulfilled
• CC(NC(=O)CCCc1ccc2cccnc2n1)c1ccc(-c2cccc(C(F)(F)F)c2)cc1 (centres undefined) = Fulfilled
• O=C(CCCc1ccc2cccnc2n1)NCc1cc(-c2ccc(F)c(C(F)(F)F)c2)no1 = Fulfilled
• FC(F)(F)c1ccc(-c2nnc(CCCCc3ccc4cccnc4n3)o2)cc1 = Not fulfilled
• O=C(CCCc1ccc2cccnc2n1)NCc1ccc(-c2cccc(F)c2C(=O)O)cc1F = Not fulfilled
• O=C(CCCc1ccc2cccnc2n1)NCc1cc(-c2cccc(Cl)c2)no1 = Not fulfilled
• FC(F)(F)c1cccc(-c2ccc(-c3nnc(CCCc4ccc5cccnc5n4)o3)cc2)c1 = Fulfilled
• O=C(NCc1ccc(-c2ccccc2)cc1)c1ccc(-c2ccc3cccnc3n2)cc1 = Not fulfilled
• CC(C)(C(=O)NCc1ccc(-c2ccc(F)c(C(F)(F)F)c2)cc1)c1ccc(-c2ccc3cccnc3n2)cc1 = Fulfilled
• C[C@H](NC(=O)C(F)(F)c1ccc(-c2ccc3cccnc3n2)cc1)c1ccc(-c2ccc(F)c(C(F)(F)F)c2)cc1 = Fulfilled
• CCc1cccc(-c2ccc(CNC(=O)CCCc3ccc4cccnc4n3)cc2)c1 = Fulfilled
• C[C@H](NC(=O)C(C)(C)c1ccc(-c2ccc3cccnc3n2)cc1)c1ccc(-c2ccc(F)c(C(F)(F)F)c2)cc1 = Fulfilled
• NC(=O)c1cccc(-c2ccc(CNC(=O)CCCc3ccc4cccnc4n3)cc2)c1 = Not fulfilled
• O=C(CCCc1ccc2cccnc2n1)NCc1csc(-c2cccc(Cl)c2)n1 = Fulfilled
• Fc1ccc(-c2nnc(CCCCc3ccc4cccnc4n3)o2)cc1C(F)(F)F = Fulfilled
• Clc1cccc(-c2ccc(-c3nnc(CCCc4ccc5cccnc5n4)o3)cc2)c1 = Fulfilled
• O=C(CCCc1ccc2cccnc2n1)NCc1ccc(-c2cccc(OC(F)(F)F)c2)cc1 = Fulfilled

###

# Assay Notes: Plasma protein binding in Wistar rat at 50 mg/kg, ip
# Assay type: ADME, organism-based
# Parameters: dose 50 mg/kg, route intraperitoneal
# Assay Context: read-out: PPB
Metric: fraction unbound

• Cc1cccc(-c2ccc(CNC(=O)CCCc3ccc4cccnc4n3)cc2)c1 = 0.01

###

# System: Kidney
# Assay Notes: Drug concentration in Wistar rat kidney at 100 mg/kg, ip
# Type: ADME, organism-based
# Set-up: dose 100 mg/kg, route intraperitoneal
# Assay Context: in vivo, read-out: Drug uptake
Metric: concentration (µM)

* C[C@H](NC(=O)Cc1ccc(-c2ccc3cccnc3n2)cc1)c1ccc(-c2ccc(F)c(C(F)(F)F)c2)cc1 | 8

###

Consider the following molecules and their measured clearance readings.
# Assay Notes: Plasma clearance in Wistar rat at 5 mg/kg, iv
# Type: ADME, organism-based
# Design: dose 5 mg/kg, route intravenous
Metric: clearance (mL/min/kg)

• O=C(CCCc1ccc2cccnc2n1)NCc1ccc(-c2cccc(Cl)c2)cc1 = 4.4
• O=C(CCCc1ccc2cccnc2n1)NCc1cc(-c2ccc(F)c(C(F)(F)F)c2)no1 = 4.7
• Clc1cccc(-c2ccc(-c3nnc(CCCc4ccc5cccnc5n4)o3)cc2)c1 = 51
• FC(F)(F)Oc1ccc(-c2nnc(CCCCc3ccc4cccnc4n3)o2)cc1Cl = 2
• Cc1cccc(-c2ccc(CNC(=O)CCCc3ccc4cccnc4n3)cc2)c1 = 64.7
• C[C@H](NC(=O)CCCc1ccc2cccnc2n1)c1ccc(-c2cccc(Cl)c2)cc1 = 14.8
• FC(F)(F)c1cc(-c2nnc(CCCCc3ccc4cccnc4n3)o2)ccc1Cl = 4.8

FYI, the data here is from ChEMBL document CHEMBL2150920.
